- subject_of_test: Recombinant soluble trimeric human BAFF (furin-cleaved human BAFF 134-285) (human, UniProt Q9Y275 134-285)
- assay_notes: cell-based or functional assay
Labelling: Soluble trimeric huBAFF (50 pM) Neutralization IC90 reported below 300 pM becomes MET; at or above becomes NOT MET.

In: Identify whether the binder 1094C4E6 (antibody, V domains shown) VH: EVQLQQSGAELVRPGASVKLSCTASGFNIKDDYMHWVKQTPEQGLEWIGRIDPAYGNGKYVPKFQDKATITADTSSNTAYLQLSSLTSEDTAVYYCARRYYAVSSVDYALDYWGQGTSVTVSS VL: DIVMTQSHKFMSTSVGDRVTITCKASQDVATAVAWYQQKPGQSPKLLIYWASTRHTGVPDRFTGSGSGTDFTLTISNVQSEDLANYFCQQYSNYPYTFGGGTTLEIK records Soluble trimeric huBAFF (50 pM) Neutralization IC90 below 300 pM.
Out: NOT MET

In: Consider the binder 436H6A9 (antibody, V domains shown) VH: QLQQSGPELVKPGASVKISCKASGYTFTDNFINWVKQRPGQGLEWIGWISPGSGNTKNNEKFKGKATVTVDTSSSTAYMQLSSLTSEDSAVYFCARGIIYYYDGTYPYALDYWGQGTSVTVSS VL: DIVLTQSPASLGVSLGQRATISCRATKGVTKSGYSYIHWYQQKPGQPPKLLIYLASNLQSGVPARFSGSGSGTDFTLNIHPVEEEDAATYYCQHSRELPLTFGAGTKLELK . Is its Soluble trimeric huBAFF (50 pM) Neutralization IC90 strictly less than 300 pM?
Out: MET

In: Consider the binder 394F5A5 (antibody, V domains shown) VH: VTLKESGPGILQPSQTLSLTCSFSGFSLRTFGMGVGWIRQPSGKGLEWLAHIWWNDEKYYNPTLKSRLTISKDTSKNQVFLRIANVDTAVTAAYYCARIGPSITTVVEGFPYWGQGTLVTVSA VL: DIVMTQSQKFMSTTIGDRVSITCKASQNVGSAVAWYQQKPGQPPKLLIYSTSNRYTGVPDRFTGSRSGTDFTLTVSNMQSEDLADYFCQQYASYPLTFGTGTKLELK . Is its Soluble trimeric huBAFF (50 pM) Neutralization IC90 strictly less than 300 pM?
Out: NOT MET

In: Problem: For the binder 431G5A3 (antibody, V domains shown) VH: QLQQSGPELVKPGASVKLSCKASGYTFTDYSIHWVKQSPGQGLEWIGWIYPGSDNTKYNDKFKGKASMTADKSSRTVYMHLSSLTSEESAVYFCARDYRRYYAMDYWGQGTSVTVSS VL: KIVLTQSSASLAVSLGQRATISCRASESVDRYGNSLMHWYQQKPGQPPKLLIYIASNLESGVPARFSGSGSRTDFTLTIDPVEADDAATYYCQQNNEDPRTFGGGTKLEIK , is Soluble trimeric huBAFF (50 pM) Neutralization IC90 under 300 pM?
Out: NOT MET

In: Soluble trimeric huBAFF (50 pM) Neutralization IC90 under 300 pM? Item: 27I21-3C7 (antibody, V domains shown) VH: QVQLQQSGPELVRPGTSVKISCKAPGYIFTSHWMQWVRQRPGQGLEWIGDIFPGSGTTDYNEKFKDKATVTVDRSSSSAYMQFNSLTSEDSAVYFCASGAFDYWGQGTTLTVSS VL: DIQMTQSPSSLSASLGERVSLTCRASQDIGNRLNWLQQAPDGTIKRLIYATSSLDSGVPKRFSGSRSGSDYSLTISSLESEDFVDYYCLQYASYPFTFGTGTKLEIK
Out: NOT MET

Source of measurements: patent US20190309034A1
